# experiment_summary: Stability in human plasma assessed as parent compound remaining after 4 hrs
# Assay type: ADME, cell-free
# experimental_context: read-out: Stability
Measured remaining at 4 h of individual entries

# compound, remaining at 4 h, %
data = [
    ("CC(C)OC(=O)C(C)(C)NP(=O)(OC[C@H]1O[C@@H](n2ccc(=O)[nH]c2=O)[C@](Cl)(Br)[C@@H]1O)Oc1ccccc1 (stereo partly specified)", 100),
    ("CCOC(=O)C(C)(C)N[P@](=O)(OC[C@H]1O[C@@H](n2ccc(=O)[nH]c2=O)[C@](Cl)(Br)[C@@H]1O)Oc1ccccc1", 100),
    ("CCOC(=O)C(C)(C)N[P@](=O)(OC[C@H]1O[C@@H](n2ccc(=O)[nH]c2=O)[C@@](F)(Br)[C@@H]1O)Oc1ccccc1", 98),
    ("CCOC(=O)C(C)(C)N[P@@](=O)(OC[C@H]1O[C@@H](n2ccc(=O)[nH]c2=O)[C@](Cl)(Br)[C@@H]1O)Oc1ccccc1", 92),
    ("CC(C)OC(=O)[C@H](C)N[P@](=O)(OC[C@H]1O[C@@H](n2ccc(=O)[nH]c2=O)[C@](C)(F)[C@@H]1O)Oc1ccccc1", 96),
    ("CC(C)OC(=O)[C@H](C)N[P@](=O)(OC[C@H]1O[C@@H](n2ccc(=O)[nH]c2=O)[C@@](F)(Br)[C@@H]1O)Oc1ccccc1", 100),
]

====

# experiment_summary: Prodrug conversion in human primary hepatocytes assessed as nucleotide triphosphate level at 100 uM incubated for 4 hrs and followed by compound washout for 20 hrs and measured following 24 hrs incubation period by LC-MS/MS analysis
# Assay type: ADME, cell-based, Hepatocyte
reported_metric: Drug metabolism (µM)

# compound, reported_result
rows = [
    ("CC(C)OC(=O)[C@H](C)N[P@](=O)(OC[C@H]1O[C@@H](n2ccc(=O)[nH]c2=O)[C@](C)(F)[C@@H]1O)Oc1ccccc1", 122),
    ("CC(C)OC(=O)[C@H](C)N[P@@](=O)(OC[C@H]1O[C@@H](n2ccc(=O)[nH]c2=O)[C@](Cl)(Br)[C@@H]1O)Oc1ccccc1", 24),
    ("CCOC(=O)C(C)(C)N[P@](=O)(OC[C@H]1O[C@@H](n2ccc(=O)[nH]c2=O)[C@](Cl)(Br)[C@@H]1O)Oc1ccccc1", 203),
    ("CC(C)OC(=O)[C@H](C)N[P@](=O)(OC[C@H]1O[C@@H](n2ccc(=O)[nH]c2=O)[C@@](F)(Br)[C@@H]1O)Oc1ccccc1", 91),
    ("CC(C)OC(=O)C(C)(C)NP(=O)(OC[C@H]1O[C@@H](n2ccc(=O)[nH]c2=O)[C@](Cl)(Br)[C@@H]1O)Oc1ccccc1 (some centres not stated)", 40),
    ("CCOC(=O)C(C)(C)N[P@](=O)(OC[C@H]1O[C@@H](n2ccc(=O)[nH]c2=O)[C@@](F)(Br)[C@@H]1O)Oc1ccccc1", 736),
    ("CC(C)OC(=O)[C@H](C)N[P@](=O)(OC[C@H]1O[C@@H](n2ccc(=O)[nH]c2=O)[C@](Cl)(Br)[C@@H]1O)Oc1ccccc1", 22),
]

====

# experiment_summary: Stability in dog plasma assessed as parent compound remaining after 4 hrs
# Format: ADME, cell-free, Canis lupus familiaris
# experimental_context: read-out: Stability
reported_metric: remaining at 4 h (%)

# compound, reported_metric, reported_result
measured = [
    ("CCOC(=O)C(C)(C)N[P@@](=O)(OC[C@H]1O[C@@H](n2ccc(=O)[nH]c2=O)[C@](Cl)(Br)[C@@H]1O)Oc1ccccc1", "remaining at 4 h", 100),
    ("CCOC(=O)C(C)(C)N[P@](=O)(OC[C@H]1O[C@@H](n2ccc(=O)[nH]c2=O)[C@](Cl)(Br)[C@@H]1O)Oc1ccccc1", "remaining at 4 h", 86),
    ("CC(C)OC(=O)C(C)(C)NP(=O)(OC[C@H]1O[C@@H](n2ccc(=O)[nH]c2=O)[C@](Cl)(Br)[C@@H]1O)Oc1ccccc1 (stereo partly specified)", "remaining at 4 h", 100),
    ("CCOC(=O)C(C)(C)N[P@](=O)(OC[C@H]1O[C@@H](n2ccc(=O)[nH]c2=O)[C@@](F)(Br)[C@@H]1O)Oc1ccccc1", "remaining at 4 h", 100),
    ("CC(C)OC(=O)[C@H](C)N[P@](=O)(OC[C@H]1O[C@@H](n2ccc(=O)[nH]c2=O)[C@](C)(F)[C@@H]1O)Oc1ccccc1", "remaining at 4 h", 93),
    ("CC(C)OC(=O)[C@H](C)N[P@](=O)(OC[C@H]1O[C@@H](n2ccc(=O)[nH]c2=O)[C@@](F)(Br)[C@@H]1O)Oc1ccccc1", "remaining at 4 h", 86),
]

====

# experiment_summary: Prodrug conversion in Beagle dog liver assessed as nucleotide triphosphate level at 5 mg/kg, po co-dosed with 5 mg/kg sofosbuvir measured after 24 hrs by LC-MS/MS analysis
# Assay type: ADME, organism-based, Canis lupus familiaris
# experimental_context: in vivo
Measured Drug metabolism of individual entries

# compound, Drug metabolism / µM
records = [
    ("CC(C)OC(=O)C(C)(C)NP(=O)(OC[C@H]1O[C@@H](n2ccc(=O)[nH]c2=O)[C@](Cl)(Br)[C@@H]1O)Oc1ccccc1 (stereo partly drawn)", 3.43),
    ("CC(C)OC(=O)[C@H](C)N[P@](=O)(OC[C@H]1O[C@@H](n2ccc(=O)[nH]c2=O)[C@@](F)(Br)[C@@H]1O)Oc1ccccc1", 8.87),
    ("CC(C)OC(=O)[C@H](C)N[P@](=O)(OC[C@H]1O[C@@H](n2ccc(=O)[nH]c2=O)[C@](Cl)(Br)[C@@H]1O)Oc1ccccc1", 1.02),
]

====

Measured CLint scaled of individual entries
# experiment_summary: Intrinsic clearance in human hepatocytes
# Assay type: ADME, cell-based, Hepatocyte
# experimental_context: read-out: CLH (converted)
reported_metric: CLint scaled (mL/min/kg)

# smiles_string, units_of_measure, reported_result
records = [
    ("CCOC(=O)C(C)(C)N[P@](=O)(OC[C@H]1O[C@@H](n2ccc(=O)[nH]c2=O)[C@@](F)(Br)[C@@H]1O)Oc1ccccc1", "mL/min/kg", 132),
    ("CCOC(=O)C(C)(C)N[P@](=O)(OC[C@H]1O[C@@H](n2ccc(=O)[nH]c2=O)[C@](Cl)(Br)[C@@H]1O)Oc1ccccc1", "mL/min/kg", 268),
    ("CC(C)OC(=O)[C@H](C)N[P@](=O)(OC[C@H]1O[C@@H](n2ccc(=O)[nH]c2=O)[C@@](F)(Br)[C@@H]1O)Oc1ccccc1", "mL/min/kg", 257),
    ("CCOC(=O)C(C)(C)N[P@@](=O)(OC[C@H]1O[C@@H](n2ccc(=O)[nH]c2=O)[C@](Cl)(Br)[C@@H]1O)Oc1ccccc1", "mL/min/kg", 155),
]

====

# Tested on: Hepatitis C virus
# experiment_summary: Antiviral activity against HCV genotype 1a H77 infected in human HuH7 replicon cells assessed as inhibition of viral replication after 3 days by luciferase reporter gene assay
# Format: functional, organism-based, Hepacivirus hominis
# experimental_context: subtype 1a H77, Huh-7, 72 h
reported_metric: log10 of EC50 (log10 of the value in nM)

# molecule, log10 of EC50
data = [
    ("CC(C)OC(=O)[C@H](C)N[P@](=O)(OC[C@H]1O[C@@H](n2ccc(=O)[nH]c2=O)[C@](F)(Br)[C@@H]1O)Oc1ccccc1", 3.48),
    ("CC(C)OC(=O)[C@H](C)N[P@](=O)(OC[C@H]1O[C@@H](n2ccc(=O)[nH]c2=O)C(C)(C)C1O)Oc1ccccc1 (single isomer, unassigned)", 3.75),
    ("CC(C)OC(=O)[C@H](C)N[P@](=O)(OC[C@H]1O[C@@H](n2ccc(=O)[nH]c2=O)C(F)(F)[C@@H]1O)Oc1ccccc1", 2.35),
    ("CC(C)OC(=O)C(C)(C)NP(=O)(OC[C@H]1O[C@@H](n2ccc(=O)[nH]c2=O)[C@](Cl)(Br)[C@@H]1O)Oc1ccccc1 (some centres not stated)", 3.04),
    ("CC(C)OC(=O)[C@H](C)N[P@](=O)(OC[C@H]1O[C@@H](n2ccc(=O)[nH]c2=O)[C@@](F)(Cl)[C@@H]1O)Oc1ccccc1", 1.72),
    ("CC(C)OC(=O)[C@H](C)N[P@](=O)(OC[C@H]1O[C@@H](n2ccc(=O)[nH]c2=O)[C@@](F)(Br)[C@@H]1O)Oc1ccccc1", 1.75),
    ("CCOC(=O)C(C)(C)N[P@](=O)(OC[C@H]1O[C@@H](n2ccc(=O)[nH]c2=O)[C@@](F)(Br)[C@@H]1O)Oc1ccccc1", 2.41),
    ("CC(C)OC(=O)[C@H](C)N[P@](=O)(OC[C@H]1O[C@@H](n2ccc(=O)[nH]c2=O)C(Cl)(Cl)[C@@H]1O)Oc1ccccc1", 1.63),
    ("CC(C)OC(=O)[C@H](C)N[P@](=O)(OC[C@H]1O[C@@H](n2ccc(=O)[nH]c2=O)[C@](Cl)(Br)[C@@H]1O)Oc1ccccc1", 2.06),
    ("CC(C)OC(=O)[C@H](C)N[P@](=O)(OC[C@H]1O[C@@H](n2ccc(=O)[nH]c2=O)[C@@](Cl)(Br)[C@@H]1O)Oc1ccccc1", 2.30),
    ("CC(C)OC(=O)[C@H](C)N[P@@](=O)(OC[C@H]1O[C@@H](n2ccc(=O)[nH]c2=O)[C@](Cl)(Br)[C@@H]1O)Oc1ccccc1", 2.61),
    ("CCOC(=O)C(C)(C)N[P@@](=O)(OC[C@H]1O[C@@H](n2ccc(=O)[nH]c2=O)[C@](Cl)(Br)[C@@H]1O)Oc1ccccc1", 3.43),
    ("CC(C)OC(=O)[C@H](C)N[P@](=O)(OC[C@H]1O[C@@H](n2ccc(=O)[nH]c2=O)[C@](C)(Cl)[C@@H]1O)Oc1ccccc1", 2.14),
    ("CCOC(=O)C(C)(C)N[P@](=O)(OC[C@H]1O[C@@H](n2ccc(=O)[nH]c2=O)[C@](Cl)(Br)[C@@H]1O)Oc1ccccc1", 2.81),
    ("CC(C)OC(=O)[C@H](C)N[P@](=O)(OC[C@H]1O[C@@H](n2ccc(=O)[nH]c2=O)C(Br)(Br)[C@@H]1O)Oc1ccccc1", 2.61),
]
